# protocol: Liver microsomal stability, rat
# Format: in vitro ADME
# condition-set: 1 µM compound; 0.5 mg/mL microsomes; NADPH; 30 minutes at 37°C
# Protocol: Liver microsomal stability by the compounds prepared according to Examples 1 to 46 was confirmed. […] The amount of remaining substrate through the reaction was analyzed using a Shimadzu Nexera XR system and TSQ vantage (Thermo). […] The calculated results are shown in Table 5 below: Liver microsomal stability data of novel compounds from […] (human, rat, and mouse).
Reported Rat microsomes (% remaining) is given for each of the following compounds.
Note: unit % remaining is implicit; provide only the numeric part.

Solved cases below.
Please give the measured Rat microsomes (% remaining) for this compound: CC1CN(C(=O)Nc2nc3ccc(NN=C(C#N)C#N)cc3s2)CC(C)O1 (stereo not shown) [Compound 39] 82.3

Reported Rat microsomes (% remaining), compound CC1CN(c2nc3ccc(NN=C(C#N)C#N)cc3o2)CC(C)O1 (stereo not shown) [Compound 18] : ____ 72.9

Which Rat microsomes (% remaining) reading was recorded for the compound CC(=O)N1CCN(c2nc3ccc(NN=C(C#N)C#N)cc3s2)CC1 [Compound 30] ? 91.9

Please look up its Rat microsomes (% remaining): N#CC(C#N)=NNc1ccc2nc(N3CCOCC3)oc2c1 [Compound 4] 80.9

Query (compound): N#CC(C#N)=NNc1ccc2nc(N3CC4CCC(C3)O4)oc2c1 [Compound 26] ; field requested: Rat microsomes (% remaining) 95.1

Continuing:
If you can, please state the reported Rat microsomes (% remaining) value of N#CC(C#N)=NNc1ccc2nc(NC(=O)N3CC4CCC(C3)O4)sc2c1 [Compound 40] . 87.7

Item under review: N#CC(C#N)=NNc1ccc2nc(N3CC[C@@H](F)C3)oc2c1 [Compound 41] . Reported Rat microsomes (% remaining)? 19.0
